B1: Subtilisin BPN', P00782 (parent)
chain: MRGKKVWISLLFALALIFTMAFGSTSSAQAAGKSNGEKKYIVGFKQTMSTMSAAKKKDVISEKGGKVQKQFKYVDAASATLNEKAVKELKKDPSVAYVEEDHVAHAYAQSVPYGVSQIKAPALHSQGYTGSNVKVAVIDSGIDSSHPDLKVAGGASMVPSETNPFQDNNSHGTHVAGTVAALNNSIGVLGVAPSASLYAVKVLGADGSGQYSWIINGIEWAIANNMDVINMSLGGPSGSAALKAAVDKAVASGVVVVAAAGNEGTSGSSSTVGYPGKYPSVIAVGAVDSSNQRASFSSVGPELDVMAPGVSIQSTLPGNKYGAYNGTSMASPHVAGAAALILSKHPNWTNTQVRSSLENTTTKLGDSFYYGKGLINVQAAAQ

# Variants of: B1
# condition_info: Bacillus amyloliquefaciens; pH 8; 58.8 °C; Thermal; DSC; Tris-HCl 5.0 mM; KCl 50 mM; reversible: yes; structure 1SUP; whole UniProt chain shown
reported_property: ddG of mutation (higher = less stable) (kcal/mol)
Give bare numbers, in kcal/mol.

| mutation_string | reading_unit | ddG of mutation (higher = less stable) |
| --- | --- | --- |
| N183D | kcal/mol | -0.45 |
| M157F | kcal/mol | -0.48 |
| N325S | kcal/mol | -1.07 |
| G276A | kcal/mol | -0.3 |
| Y324K | kcal/mol | -0.72 |

Field: next variant
Lab book: ddG of mutation (higher = less stable) of Q313C noted as -1.25

Origin of values: FireProtDB (doi:10.1021/bi00444a012)
